- SYSTEM UNDER TEST: T1, human CD98, endogenously expressed on Molt-4 human acute lymphoblastic leukemia cells (human)
- T1 chain: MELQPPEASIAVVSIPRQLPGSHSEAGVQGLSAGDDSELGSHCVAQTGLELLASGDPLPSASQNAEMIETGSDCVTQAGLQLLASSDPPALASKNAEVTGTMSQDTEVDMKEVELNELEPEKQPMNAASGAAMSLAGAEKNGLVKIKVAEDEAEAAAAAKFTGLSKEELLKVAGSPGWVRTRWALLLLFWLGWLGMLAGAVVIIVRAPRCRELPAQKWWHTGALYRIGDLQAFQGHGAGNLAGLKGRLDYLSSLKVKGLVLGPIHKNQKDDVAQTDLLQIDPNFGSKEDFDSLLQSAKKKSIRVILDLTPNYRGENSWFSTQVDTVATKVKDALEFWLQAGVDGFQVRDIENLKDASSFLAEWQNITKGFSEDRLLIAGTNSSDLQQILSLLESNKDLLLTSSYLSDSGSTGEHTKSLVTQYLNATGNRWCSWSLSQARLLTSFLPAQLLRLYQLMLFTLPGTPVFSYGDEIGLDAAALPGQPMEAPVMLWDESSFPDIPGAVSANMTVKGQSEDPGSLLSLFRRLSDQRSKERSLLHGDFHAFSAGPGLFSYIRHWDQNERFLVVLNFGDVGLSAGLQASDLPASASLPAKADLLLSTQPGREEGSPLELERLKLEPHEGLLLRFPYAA
- MEASUREMENT PROTOCOL: cell-based or functional assay
VALUE TYPE: % Cell Viability at 50 nM (Molt-4) (%)
One number for each entry, in %.

Here's what some known entries look like.
BINDER	UNITS	% Cell Viability at 50 nM (Molt-4)
CD98 (CL-huAb110)-XW (antibody, human IgG1, kappa, L234A L235A, V domains shown, synthon XW on reduced cysteine (see heavy chain); Bcl-xL inhibitor synthon XW on cysteines freed by TCEP reduction (Method G); DAR 3.2 by MS for the whole ADC) VH: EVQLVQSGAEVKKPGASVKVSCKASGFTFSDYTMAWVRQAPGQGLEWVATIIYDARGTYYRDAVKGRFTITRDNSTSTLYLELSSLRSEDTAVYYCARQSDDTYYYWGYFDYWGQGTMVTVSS VL: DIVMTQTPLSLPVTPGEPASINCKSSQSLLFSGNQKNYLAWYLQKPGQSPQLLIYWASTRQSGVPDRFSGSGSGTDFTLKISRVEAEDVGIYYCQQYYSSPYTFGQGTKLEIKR	%	19.6
CD98 (CL-huAb102)-XW (antibody, human IgG1, kappa, L234A L235A, V domains shown, synthon XW on reduced cysteine (see heavy chain); Bcl-xL inhibitor synthon XW on cysteines freed by TCEP reduction (Method G); DAR 2.8 by MS for the whole ADC) VH: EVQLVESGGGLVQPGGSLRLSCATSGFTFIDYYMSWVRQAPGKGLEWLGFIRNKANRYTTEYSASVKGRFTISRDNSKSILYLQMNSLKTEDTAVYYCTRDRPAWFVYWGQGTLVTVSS VL: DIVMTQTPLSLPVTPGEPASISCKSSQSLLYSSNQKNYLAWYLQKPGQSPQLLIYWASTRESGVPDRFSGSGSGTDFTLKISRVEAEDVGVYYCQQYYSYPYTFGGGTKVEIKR	%	32

The record that follows has no % Cell Viability at 50 nM (Molt-4) shown yet.
What the record says about CD98 (CL-huAb108)-XW (antibody, human IgG1, kappa, L234A L235A, V domains shown, synthon XW on reduced cysteine (see heavy chain); Bcl-xL inhibitor synthon XW on cysteines freed by TCEP reduction (Method G); DAR 3.5 by MS for the whole ADC) VH: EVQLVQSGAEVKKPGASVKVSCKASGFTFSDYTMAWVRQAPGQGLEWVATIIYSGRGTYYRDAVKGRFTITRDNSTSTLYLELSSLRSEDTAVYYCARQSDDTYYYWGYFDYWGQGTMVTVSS VL: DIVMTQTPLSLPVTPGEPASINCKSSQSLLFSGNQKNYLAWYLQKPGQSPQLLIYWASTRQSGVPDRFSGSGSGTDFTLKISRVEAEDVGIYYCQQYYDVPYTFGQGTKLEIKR : % Cell Viability at 50 nM (Molt-4) is 20.9
